# test details: Acute toxicity, intraperitoneal, mice
# Format: in vivo
# experimental setup: mouse, in vivo, ip; intraperitoneal, ddY male mice, 7 days observation
The entries below are paired with their reported LD50 at 168 h.

| compound | LD50 at 168 h |
| --- | --- |
| CN(C)CC#CC(=O)c1ccccc1 | > 200 mg/kg |
| CCN(CC)CC#CC(OC(=O)c1cccnc1)c1ccccc1 (stereo not drawn) | > 200 mg/kg |
| CCCN(CC)CC#CC(=O)c1ccccc1 | > 200 mg/kg |

* * *

# test details: Acute toxicity, intraperitoneal, mice
# Format: in vivo
# experimental setup: mouse, in vivo, ip
The entries below are paired with their reported LD50 at 168 h.
property measured: LD50 at 168 h

| compound | property measured | measured value |
| --- | --- | --- |
| CCN(CC)CC#CC(OC(=O)c1cccnc1)c1ccc(OC)cc1 (stereo not drawn) [Example 10] | LD50 at 168 h | > 200 mg/kg |
| CCN(CC)CC#CC(=O)c1ccccc1 [Example 17] | LD50 at 168 h | > 200 mg/kg |
| CCN(CC)CC#CC(OC(=O)c1cccnc1)c1ccc(C)cc1 (stereo not drawn) [Example 7] | LD50 at 168 h | > 200 mg/kg |
